Provide the recorded Follow-up HTS Run % Run for the entries that follow.
Tested on: Caenorhabditis elegans
Assay: HTS runs (initial and follow-up): mOD, % Run and visual score (Table 3)
Format: in vivo
Conditions: Follow-up HTS Run
# output: bare number, implied unit %

**Query** # query: Follow-up HTS Run % Run of entry `Fc1ccc(Oc2cc(NCc3cc(F)cc(F)c3)ncn2)cc1`
**Result** 94

**Query** Lookup `c1ccc2c(c1)CCN(c1cc(Oc3ccc4ccccc4c3)ncn1)C2`
**Result** 92

**Query** Next entry: `Fc1ccc(Oc2cc(NCc3ccc(C(F)(F)F)cc3)ncn2)cc1`
**Result** 113

**Query** Query `Clc1cccc(CNc2cc(Oc3cccc(Cl)c3)ncn2)c1` next
**Result** 108

**Query** Repeat for the following compound: `C#Cc1cccc(N(CC(=O)Nc2ccc(S(N)(=O)=O)cc2)Cc2cccs2)c1`
**Result** 111

**Query** What do you get for `CC(C)(C)OC(=O)N1CCN(c2cc(Oc3ccccc3Cl)ncn2)CC1` ?
**Result** 114

**Query** Entry to check: `CC(C)(C)OC(=O)NCc1ccc(-c2cccc(C(=O)Nc3ccc(S(N)(=O)=O)cc3)c2)cc1`
**Result** 110

**Query** Then what about the compound `NS(=O)(=O)c1cccc(NC(=O)CCN2CCC(c3cccc4[nH]ccc34)CC2)c1` ?
**Result** 109

**Query** Moving on to `CCCCCCCCCCCCNc1cc(Oc2ccccc2Cl)ncn1`
**Result** 124

**Query** And what about the compound CCC(C)Nc1cc(Oc2ccc3oc4ccccc4c3c2)ncn1 (centres unmarked) ?
**Result** 103

**Query** Can you check `CCN(C)c1cc(Oc2ccc3ccccc3c2)ncn1` next?
**Result** 101
